Experiment: NCI Yeast Anticancer Drug Screen. Data for the cln2 rad14 strain (AID 165);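 note: 0% = growth equal to vehicle treated cultures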
Conditions: S. cerevisiae cln2 rad14 strain, at 50.0 µM
About 79,000 compounds went through this panel and 15% of them were active in at least one assay; those are over-represented in the sample as a whole. Active and inactive are the calls of the source. Cut-off read from the data, not from the text of the source: active = growth inhibition above about 70%; inactive = the rest.
One label from this list, please: active, inactive

Example results:
# Compound, Class
data = [
    ("O=C(O)c1cccc(N=Nc2c(S(=O)(=O)O)ccc3c2C(=O)c2ccccc2C3=O)c1O", "active"),
    ("COC(=O)C(CBr)CBr", "inactive"),
    ("C=C1C(=O)[C@]23C[C@H]1CC[C@H]2[C@@]12CO[C@@H](O)[C@@H]1C(C)(C)[C@@H](O)C[C@@H]2OC3=O", "inactive"),
    ("CC1(C)C=CC2=C(O1)C(=O)c1ccccc1C2=O", "inactive"),
    ("CCCCCCCCCCn1cc[nH]c1=S", "active"),
    ("CCCCCCCC(=O)N1CCCCC1CC (centres undefined)", "inactive"),
    ("O=C(CCl)[O][Bi]([O]C(=O)CCl)([c]1ccccc1)([c]1ccccc1)[c]1ccccc1", "inactive"),
    ("CS(=O)(=O)OCCN(CCOS(C)(=O)=O)c1ccc(N=Nc2ccccc2)cc1", "inactive"),
    ("CCN(CC)c1ccc(Cl)c2c1C(O)(C(C)C)C2(C)C (centres undefined)", "active"),
    ("O/N=C\\c1ccc(-c2ccccc2)cc1", "inactive"),
]

For CSC1NNC2(C(=O)N1)c1ccccc1-c1ccccc12 (centres undefined) , what call appears in the results of this test?
active

For CCNCC(O)COc1ccc2c(c1)[n+]([O-])nc(N)[n+]2[O-] (centres undefined) , what call appears in the results of this test?
inactive

For C=CCNC(=O)NC(=O)CSC1=NNC2(C(=O)N1)c1ccccc1-c1ccccc12 , what call appears in the results of this test?
active

For O=[N+]([O-])c1ccc(S)c(Cl)c1 , what call appears in the results of this test?
inactive

For COC(=O)C(=O)CC(=O)c1cccc(Cl)c1 , what call appears in the results of this test?
inactive

----------
Assay: NCI Yeast Anticancer Drug Screen. Data for the cln2 rad14 strain (AID 165);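 note: 0% = growth equal to vehicle treated cultures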
Details: S. cerevisiae cln2 rad14 strain, at 5.0 µM (retest, dose inferred, filed as 0.5), stronger effect = higher value
About 79,000 compounds went through this panel and 15% of them were active in at least one assay; those are over-represented in the sample as a whole.
Observation Type: growth inhibition (%)
One number for each entry, in %.

Known growth inhibition results, listed for orientation:
# Compound, Numeric Readout
measured = [
    ("CC1=C(c2ccccc2)C(=O)OC1=O", 0),
    ("Cc1nc2c([N+](=O)[O-])c(N3CCCCC3)c([N+](=O)[O-])cc2[nH]1", 17),
]

I have 2 compounds here; please give me growth inhibition for each one.
1. CO[C@H]1CC[C@@]2(C)C(=CC[C@H]3[C@@H]4C[C@H](OC(C)=O)C[C@@]4(C)CC[C@@H]32)C1
2. O=Cc1ccc(/C=N\Nc2ccccc2)cc1

1. 2
2. 1

I have 3 compounds here; please give me growth inhibition for each one.
1. O/N=C(/CN1CCN(c2ccccc2)CC1)c1ccccc1
2. CCCCCCc1ccc(O)c(Cl)c1
3. O=S1(=O)CC2C1C1(Cl)OC2(Cl)c2ccccc21 (stereo unspecified)

2
-4
-45

I have 4 compounds here; please give me growth inhibition for each one.
1. Cc1cc(C)c(CCCC(=O)c2c(C)cc(C)cc2C)c(C)c1
2. Nc1ccc(C(=O)Nc2ccc(C(=O)Nc3ccc(/C=C/c4ccc(NC(=O)c5ccc(N)cc5)cc4S(=O)(=O)O)c(S(=O)(=O)O)c3)cc2)cc1
3. O=c1cc(-c2ccccc2)oc(-c2ccccc2)c1
4. CCCCCCCCCCCCCCSC(=NCC)NCC

1. 1
2. 16
3. -68
4. 99

----------
For each record, write down the corresponding growth inhibition.
Experiment: NCI Yeast Anticancer Drug Screen. Data for the bub3 strain (AID 167)
Details: S. cerevisiae bub3 mutant strain, at 5.0 µM (retest, dose inferred, filed as 0.5), stronger effect = higher value
The panel holds about 79,000 compounds, 15% with a hit somewhere; the sample as a whole holds those more often.
Answers are plain numbers, in %.

# Molecule, Result Unit, growth inhibition
data = [
    ("Cc1ccc(SC2C(=O)C3(C)CCC2C3(C)C)cc1 (stereo not given)", "%", 2),
    ("CC/C(C)=C1\\CCC(CN2CCOCC2)C1=O (stereo not given)", "%", 31),
]

I have 6 molecules here; please give me growth inhibition for each one.
1. Cc1cc(C)c(S(=O)(=O)c2c(C)cc(C)cc2C)c(C)c1
2. Oc1ccc(O)c2c1CC=C(Cl)C2
3. O=C1C=CC(=O)C(c2ccccc2)=C1
4. FC(F)(F)c1cccc(N2CCN(c3c4c(nc5ccccc35)CCCCC4)CC2)c1
5. COC(=O)CSc1n[nH]c(-c2ccc(O)c([N+](=O)[O-])c2)n1
6. CC(=O)Nc1ccc(-c2csc(Nc3ccnc4cc(Cl)ccc34)n2)cc1

1. -3
2. 26
3. 3
4. -4
5. 35
6. -2

I have 5 molecules here; please give me growth inhibition for each one.
1. CCOC(=O)Cc1csc(/C=C/c2ccc(OC)c(OC)c2)n1
2. Cc1csc(N)[n+]1CCC(=O)[O-]
3. CCC[CH2][Ge]([CH2]CCC)([CH2]CCC)[O]C(=O)C(OC(C)=O)c1ccccc1 (stereo not given)
4. CSc1cc(-c2cc3ccccc3o2)oc(=O)c1C#N
5. C=CCNC(=O)NC(=O)CSC1=NNC2(C(=O)N1)c1ccccc1-c1ccccc12

[7, -1, 62, -5, -16]

I have 8 molecules here; please give me growth inhibition for each one.
1. CC1(C)CCC2(CC1)CC(=O)OC(=O)C2
2. CN(C)/C(N)=N\c1nc2ccc(Cl)cc2s1
3. Cc1ccc(OCC2CO2)c(Br)c1 (stereo not given)
4. CCOCCC(=O)N1c2ccccc2CC1c1c[nH]c2ccccc12 (stereo not given)
5. CCOc1ccc2c(ccc(/C=C\c3cc(C)c4cccnc4c3O)[n+]2C)c1
6. O=C(c1ccc(Br)cc1)C1N=NCC1c1ccccc1 (stereo not given)
7. COc1ccc(C2CC(c3c(O)ccc4ccccc34)=NN2)cc1OC (stereo not given)
8. O=C(CN(Cc1ccccc1)Cc1ccccc1)N1CCc2c([nH]c3ccccc23)C1c1cccnc1 (stereo not given)

1: -71; 2: -1; 3: -1; 4: -8; 5: 59; 6: 0; 7: 8; 8: 11

----------
Test: NCI Yeast Anticancer Drug Screen. Data for the mlh1 rad18 strain (AID 175)
Settings: S. cerevisiae mlh1 rad18 strain growth inhibition; at 5.0 µM (retest, dose inferred, filed as 0.5)
The panel holds about 79,000 compounds, 15% with a hit somewhere; the sample as a whole holds those more often. Calls of active or inactive are those of the source. Rule as the data show it: active = growth inhibition above about 70%; inactive = the rest.
One label from this list, please: active, inactive

Example results:
# Compound, Class
rows = [
    ("Cc1cc(C)c(N2C(=O)C=CC2=O)c(C)c1", "active"),
    ("OC1CN(C2CCCCC2)CC1C1(O)CCN(C2CCCCC2)C1 (stereo not given)", "inactive"),
    ("O=C(CSc1nnc(-c2ccc(N=Cc3ccc(Cl)cc3)cc2)o1)Nc1ccccc1Cl", "inactive"),
]

For CSC(=S)N/N=C\C(O)C(O)C(O)C(O)CO (stereo not given) , what call appears in the results of this test?
inactive

For Cc1ccc(S(=O)(=O)Oc2c([N+](=O)[O-])cc(C)cc2[N+](=O)[O-])cc1 , what call appears in the results of this test?
inactive

----------
Assay: NCI Yeast Anticancer Drug Screen. Data for the rad50 strain (AID 155);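 note: 0% = growth of vehicle-only cultures of the same strain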
Conditions: S. cerevisiae rad50 strain growth inhibition; at 50.0 µM (retest, dose inferred, filed as 5.0); stronger effect = higher value
This is part of a sample that, as a whole, favours compounds with a hit. Of some 79,000 tested, about 15% had one in any assay.
For each record, write down the corresponding growth inhibition.
Answers are plain numbers, in %.

Known growth inhibition results, listed for orientation:
# Compound, growth inhibition (%)
data = [
    ("O=C1/C(=C/c2ccccc2[N+](=O)[O-])COc2ccccc21", 94),
    ("COC(=O)C(=O)C(C(=O)C(=O)Nc1ccc(C)cc1C)c1nc2ccccc2[nH]c1=O (centres undefined)", 21),
    ("O=C1OC(c2ccccc2)(c2ccc(-c3ccccc3O)cc2)c2ccccc21 (centres undefined)", 90),
]

Given the compound COc1ccccc1NC(=O)C1=C(C)NC(C)=C(C(=O)Nc2ccccc2OC)C1c1ccc(C2C(C(=O)Nc3ccccc3OC)=C(C)NC(C)=C2C(=O)Nc2ccccc2OC)cc1 , write its reported growth inhibition.
86

----------
For each record, write down the corresponding growth inhibition.
Test: NCI Yeast Anticancer Drug Screen. Data for the mlh1 rad18 strain (AID 175)
Conditions: S. cerevisiae mlh1 rad18 strain growth inhibition; at 5.0 µM (retest, dose inferred, filed as 0.5); stronger effect = higher value
Description: Growth inhibition of yeast strains with defined genetic alterations is measured as a screen for potential anti-cancer activity. Selected strains with alterations in DNA damage repair or cell cycle control were exposed to compounds and growth inhibition was measured relative to vehicle treated controls. The strain used in this assay is mlh1 rad18
This is part of a sample that, as a whole, favours compounds with a hit. Of some 79,000 tested, about 15% had one in any assay.
Numbers only, in %.

I have 4 molecules here; please give me growth inhibition for each one.
1. NC(CSSCC(N)=NCCCCCSC12CC3CC(CC(C3)C1)C2)=NCCCCCSC12CC3CC(CC(C3)C1)C2
2. O=C1c2cc(O)ccc2C(=O)c2c1ccc(O)c2O
3. CN(C)c1ccc(C(c2cc3c(cc2O)OCO3)N2CCCC2)cc1 (stereo not given)
4. O=C1C=CC(=O)c2c(O)c(N3CCN(CCOCCO)CC3)c(Br)c(O)c21

0
4
-7
16

Given the molecule Cc1ccc(NC(=O)/C(CC(=O)c2sc(Nc3ccc(Cl)c(Cl)c3)nc2C)=N\Nc2ccc([N+](=O)[O-])cc2[N+](=O)[O-])c(C)c1 , write its reported growth inhibition.
5
